# Read-out: Macrophage colony-stimulating factor (MCSF), CSF1 (gene 1435)
# ASSAY_COMMENT: BSK_LPS_MCSF: BioMAP Diversity Plus: LPS Assay for Macrophage colony-stimulating factor (MCSF) Biomarker Activity (AID 2283083)
# MEASUREMENT_SETUP: primary human HUVEC with PBMC; actives raise or lower the signal
Calls of active or inactive are those of the source. How the source made its calls: active means hit-call score of the fitted dose curve at least 0.9, where 1 is the maximum; inactive means score below 0.9.
Could you please pick one outcome from this set? active, inactive

Clc1ccccc1-c1nnc(-c2ccccc2Cl)nn1 :: inactive
N#Cc1c(Cl)c(Cl)c(Cl)c(C#N)c1Cl :: active

Let's switch to this compound now.
Would you mind telling me which call this test gave `Cc1[nH]c(=O)n(C(C)(C)C)c(=O)c1Cl` ? inactive

---

# Read-out: Monocyte Chemoattractant Protein-1 (MCP1), CCL2 (gene 6347)
# ASSAY_COMMENT: BSK_SAg_MCP1: BioMAP Diversity Plus: SAg Assay for Monocyte Chemoattractant Protein-1 (MCP1) Biomarker Activity (AID 2283090)
# MEASUREMENT_SETUP: primary human HUVEC with PBMC; actives raise or lower the signal
Calls of active or inactive are those of the source. How the source made its calls: active means hit-call score of the fitted dose curve at least 0.9, where 1 is the maximum; inactive means score below 0.9.
Choose the fitting class; nothing outside t for active, f for inactive is accepted.

CCCN(CCOc1c(Cl)cc(Cl)cc1Cl)C(=O)n1ccnc1 :: t
C[C@H]1[C@H](c2ccc(Cl)cc2)SC(=O)N1C(=O)NC1CCCCC1 :: t
O=[N+]([O-])c1c(Cl)c(Cl)c(Cl)c(Cl)c1Cl :: f
CCC(C)(NC(=O)c1cc(Cl)c(C)c(Cl)c1)C(=O)CCl (stereo not given) :: t

Turning to the following molecule.
Short answer needed: outcome of this test for CC(C)(C)C(O)C(Oc1ccc(Cl)cc1)n1cncn1 (stereo not given) ? f

---

# Read-out: Monokine induced gamma interferon (MIG), CXCL9 (gene 4283)
# ASSAY_COMMENT: BSK_3C_MIG: BioMAP Diversity Plus: 3C Assay for Monokine induced gamma interferon (MIG) Biomarker Activity (AID 2283021)
# MEASUREMENT_SETUP: primary human endothelial cells (HUVEC); actives raise or lower the signal
Activity calls are given as the source filed them. Rule for the calls: active = hit-call score of the fitted dose curve at least 0.9, where 1 is the maximum; inactive = score below 0.9.
Return exactly one item of active, inactive

Here are 3 compounds together with their reported answers.
Oc1cc(Cl)ccc1Oc1ccc(Cl)cc1Cl :: active
CC(C)(C)C(O)C(Oc1ccc(Cl)cc1)n1cncn1 (stereo unspecified) :: inactive
O=C(O)C(F)(F)C(F)(F)C(F)(F)C(F)(F)C(F)(F)C(F)(F)C(F)(F)F :: inactive

// return assay outcome for `Cc1cc(C)nc(NC(=O)NS(=O)(=O)c2ccccc2C(=O)OC2COC2)n1` inactive

How about this compound: `CCN(CC)C(=O)SCc1ccc(Cl)cc1` inactive

Thanks! And `O=[N+]([O-])c1c(Cl)c(Cl)c(Cl)c(Cl)c1Cl` ? inactive

---

# Read-out: Matrix Metallopeptidase 1 (MMP1), MMP1 (gene 4312)
# ASSAY_COMMENT: BSK_BE3C_MMP1: BioMAP Diversity Plus: BE3C Assay for Matrix Metallopeptidase 1 (MMP1) Biomarker Activity (AID 2283024)
# MEASUREMENT_SETUP: primary human bronchial epithelial cells; actives raise or lower the signal
Active and inactive are the calls of the source. Rule for the calls: active = hit-call score of the fitted dose curve at least 0.9, where 1 is the maximum; inactive = score below 0.9.
The reply should be one of these categories: 1.0 = active, 0.0 = inactive

For orientation, consider the following solved cases.
COC(=O)c1ccccc1S(=O)(=O)NC(=O)N(C)c1nc(C)nc(OC)n1 :: 0.0
Oc1ccc(Cl)cc1Cc1ccccc1 :: 1.0

Could you kindly confirm the outcome this assay logged for O=C(NC(=O)c1c(F)cccc1F)Nc1ccc(OC(F)(F)C(F)OC(F)(F)F)c(Cl)c1 (stereo not given) ? 0.0

`O=C(O)CCCOc1ccc(Cl)cc1Cl` , same question. 0.0

Cool, now `CCc1ccc(C(=O)NN(C(=O)c2cc(C)cc(C)c2)C(C)(C)C)cc1` 0.0

---

# ASSAY_COMMENT: APR_HepG2_CellCycleArrest_72hr: Apredica 72-hour HepG2 Assay for Cell Cycle Arrest (AID 2282914)
# MEASUREMENT_SETUP: high-content imaging, actives raise or lower the signal
# Procedure: APR_HepG2_72hr is a cell-based, multiplexed-readout assay that uses HepG2, a human liver cell line, with measurements taken at 72 hours after chemical dosing in a 384-well plate.APR_HepG2_CellCycleArrest_72hr is one of 10 assay component(s) measured or calculated from the APR_HepG2_72hr assay. […] This assay endpoint, APR_HepG2_CellCycleArrest_72hr, was analyzed with bidirectional fitting relative to DMSO as the negative control and baseline of activity. […]
Active and inactive are the calls of the source. The calls were made as follows: active = hit-call score of the fitted dose curve at least 0.9, where 1 is the maximum; inactive = score below 0.9.
ASSAY_METRIC: AC50

O=C1c2ccccc2C(=O)N1SC(Cl)(Cl)Cl :: inactive
CCC(C)Nc1c([N+](=O)[O-])cc(C(C)(C)C)cc1[N+](=O)[O-] (stereo not drawn) :: 83.7 µM (active)
N#Cc1c(Cl)c(Cl)c(Cl)c(C#N)c1Cl :: inactive

---

# Read-out: CYP4A11 (gene 1579)
# ASSAY_COMMENT: LTEA_HepaRG_CYP4A11: Life Technologies and Expression Analysis (LTEA) Assay for CYP4A11 using HepaRG (AID 2283486)
# MEASUREMENT_SETUP: mRNA level, 48 h; actives raise or lower the signal
# Protocol: LTEA_HepaRG is a cell based, multiplexed-readout assay that uses HepaRG, a human liver cell line, with measurements taken at 48 hours after chemical dosing on a 96-well plate.LTEA_HepaRG_CYP4A11 is one of 102 assay component(s) measured in the LTEA HepaRG cell culture assay. It is a marker of NR mediated metabolism.Data from the assay component LTEA_HepaRG_CYP4A11 was analyzed into 1 endpoint. […]
The source made the active and inactive calls. The calls were made as follows: active = hit-call score of the fitted dose curve at least 0.9, where 1 is the maximum; inactive = score below 0.9.
ASSAY_METRIC: AC50

Solved entries (count: 5):
O=[N+]([O-])/N=C1\NCCN1Cc1ccc(Cl)nc1 :: inactive
O=C(Nc1ccccc1)Nc1cnns1 :: 72.9 µM (active)
O=C1c2ccccc2C(=O)N1SC(Cl)(Cl)Cl :: inactive
C[C@H]1[C@H](c2ccc(Cl)cc2)SC(=O)N1C(=O)NC1CCCCC1 :: 40.4 µM (active)
CCN(CC)C(=O)SCc1ccc(Cl)cc1 :: inactive

I am curious: what AC50 value has been reported for `CC(C)OC(=O)Nc1cccc(Cl)c1` ? inactive

Next entry: `COP(=S)(OC)Oc1ccc(SC)c(C)c1` inactive

---

# ASSAY_COMMENT: CCTE_Padilla_ZF_144hpf_TERATOSCORE: (Legacy) CCTE's 144 Hour Post-fertilization zebrafish Assay Teratoscore, Padilla Lab (AID 2283679)
The source made the active and inactive calls. Rule for the calls: active = hit-call score of the fitted dose curve at least 0.9, where 1 is the maximum; inactive = score below 0.9.
Write down one outcome, taken from active, inactive

Use the examples below as a reference point.
CCC(C)(NC(=O)c1cc(Cl)c(C)c(Cl)c1)C(=O)CCl (stereo not given) :: active
CC(C)(C)C(O)/C(=C\c1ccc(Cl)cc1Cl)n1cncn1 (stereo not given) :: active
CC(C)N(C(=O)COc1nnc(C(F)(F)F)s1)c1ccc(F)cc1 :: active
O=C(Nc1ccccc1)Nc1cnns1 :: inactive

For `O=C(O)C(F)(F)C(F)(F)C(F)(F)C(F)(F)C(F)(F)C(F)(F)C(F)(F)F` , which call appears in the assay record? inactive

---

# Read-out: Apolipoprotein A-V (APOA5) gene, APOA5 (gene 116519)
# ASSAY_COMMENT: LTEA_HepaRG_APOA5: Life Technologies and Expression Analysis (LTEA) Assay for Apolipoprotein A-V (APOA5) gene using HepaRG (AID 2283474)
# MEASUREMENT_SETUP: mRNA level, 48 h; actives raise or lower the signal
The source made the active and inactive calls. The calls were made as follows: active = hit-call score of the fitted dose curve at least 0.9, where 1 is the maximum; inactive = score below 0.9.
ASSAY_METRIC: AC50

Consider the worked cases shown below.
O=S1OCC2C(CO1)C1(Cl)C(Cl)=C(Cl)C2(Cl)C1(Cl)Cl (stereo unspecified) :: 63.8 µM (active)
CCc1ccc(C(=O)NN(C(=O)c2cc(C)cc(C)c2)C(C)(C)C)cc1 :: inactive
O=C(O)CCCOc1ccc(Cl)cc1Cl :: inactive
COP(=S)(OC)Oc1ccc([N+](=O)[O-])cc1 :: inactive

Quick check: AC50 of CCC(C)(NC(=O)c1cc(Cl)c(C)c(Cl)c1)C(=O)CCl (stereo unspecified) ? inactive

Input CC1(c2ccc(Oc3ccccc3)cc2)OC(=O)N(Nc2ccccc2)C1=O (stereo unspecified) 28.3 µM (active)

Request: `OCCOc1ccccc1` inactive

Now consider `O=[N+]([O-])c1c(Cl)c(Cl)c(Cl)c(Cl)c1Cl` . inactive

Param item: CC(C)(C)C(O)/C(=C\c1ccc(Cl)cc1Cl)n1cncn1 (stereo unspecified) 25.3 µM (active)

And for `CC(C)N(C(=O)COc1nnc(C(F)(F)F)s1)c1ccc(F)cc1` ? 78.4 µM (active)

Another compound to check: CC[C@H](C)[C@H]1O[C@]2(C=C[C@@H]1C)C[C@@H]1C[C@@H](C/C=C(\C)[C@@H](O[C@H]3C[C@H](OC)[C@@H](O[C@H]4C[C@H](OC)[C@@H](O)[C@H](C)O4)[C@H](C)O3)[C@@H](C)/C=C/C=C3\CO[C@@H]4[C@H](O)C(C)=C[C@@H](C(=O)O1)[C@]34O)O2 (tested in a mixture with another compound) 13.6 µM (active)
